test: yeast display, Sf9 membrane polyspecificity reagent, FACS + sequencing; frameworks hold sequencing errors
recorded_metric: polyreactivity (PSR sort gate)

{"primary_sequence": "QVQLVESGGGLVQAGGSLRLSCAASGITFRQYAMGWYRQAPGKERELVAVITSRGGTTYYAVSVKGRFTISRDNAKNTVYLQMNSLKPEDTAVYYCAARYPSYDFYYWGQGTQVTVSS", "observed_result": "high polyreactivity"}
{"primary_sequence": "QVQLVESGGGFVQAGGSLRLSCAASGFTFFPYAMGWYRQAPGNEWELVAAISWSGGRTYYADSVKGRFTISRDNAKNTVYLHMNSLKPEDTAVYYCNARWRSGPRAYDYWGHGTQVTVSS", "observed_result": "high polyreactivity"}
{"primary_sequence": "QVQLVESGGGLVQAGGSLRLSCAASGSIFYDYAMGWYRQAPGKERELVATISSGGSTNYADSVKGRFTISRDNAKNTVYLQMNSLKPEDTAVYYCNVDGRRYPHEFDYWGQGTQVTVSS", "observed_result": "low polyreactivity"}
{"primary_sequence": "QVQLVESGGGLVQAGGSLRLSCAASGSIIDLNAMGWYRQAPGKERDLVAAISSGGGTYYADSVKGRFTISRDNAKNNVYLQMNSLKPEDTAVYYCAAIGYRVYRYYRGRTYDYWGQGTQVTVSS", "observed_result": "high polyreactivity"}
{"primary_sequence": "QVLLVESGGGLVQAGGSIRLSCAASGFIFWSNSLGWYRPAPGQEMELVAAISWSGGSTYYADSVKGRFTISRDNAKNNVYLEMNSVKPEDTAVYYCAARQTYGYRYTKYGYWGQGTQVTVSS", "observed_result": "high polyreactivity"}
{"primary_sequence": "QVQLVESGGGLVQAGGSLRLSCAASGRIFNFYAMGWYRQAPGKERELVASITSDGSTKYADSVKGRFTISRDNAKNTVYLKMNSLKPEDTAVFYCATDTWGSYYDDDDYWGQGTQVTVSS", "observed_result": "high polyreactivity"}
{"primary_sequence": "QVQLVESGGGLVQAGGSLRLSCAASGSSFNINAMGWYRQAPGKERELVAAISWSGDITYYADSVKGRFTISRDNAKNTVYLQLNSLKPEDTAVYYCNTDDPGNYWYAEYDYWGQGTQVTVSS", "observed_result": "low polyreactivity"}
{"primary_sequence": "QVQLVESGGWLVQAGGSLRLSCAASGSIFTINTMGWYRQARGKERELVAAITGSGGITYYADSVKGRFTISRDNAKNTVYLQMNSLNPVDTAVYYCAAVVYGTVRRVGWYYVGEGYDYWGQGTQVTVSS", "observed_result": "low polyreactivity"}
{"primary_sequence": "QVQLVESGGGLVQAGGSLRLSCAASGRTFGRYAMGWYRQAPWKERELVAVINGGGSTYYADSVKGRFTISRDNAKNTVYLQMNSLKPEDTAVDYCAVGGYTRTGGWFDYWGQGTQVTVSS", "observed_result": "high polyreactivity"}
{"primary_sequence": "QVQLLESGGGLVQAGGSLRLSCAASGFTFLSNVMGRYRQAPGKERELVAGINFSGDGTYYADSVKGRFTISRDNAKNTVYLQMNSLKPEDTAVYYCAGDVEYYRDVPQQVYVSDDYWGQGTQVTVSS", "observed_result": "low polyreactivity"}
{"primary_sequence": "QVQLVESGGGLVQAGGSLRLSCAASGRTFPDNAMGWYRQEPGKERELVAVINWGGTSTYYADSVKGRFTISRDNAKNTFYLQMNSLKPEDTAVYYCAARARYPRVGYNYWGQGTQVTVSS", "observed_result": "high polyreactivity"}

The reported measurements were obtained from the nanobody polyreactivity screen of Harvey et al. (2022).
